- assayed_target: human ether-à-go-go-related gene (hERG) potassium channel (human, UniProt Q12809);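 note: peak tail current of the secondary pulse compared with the same well before compound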
- Sequence (Q12809 whole entry, looked up): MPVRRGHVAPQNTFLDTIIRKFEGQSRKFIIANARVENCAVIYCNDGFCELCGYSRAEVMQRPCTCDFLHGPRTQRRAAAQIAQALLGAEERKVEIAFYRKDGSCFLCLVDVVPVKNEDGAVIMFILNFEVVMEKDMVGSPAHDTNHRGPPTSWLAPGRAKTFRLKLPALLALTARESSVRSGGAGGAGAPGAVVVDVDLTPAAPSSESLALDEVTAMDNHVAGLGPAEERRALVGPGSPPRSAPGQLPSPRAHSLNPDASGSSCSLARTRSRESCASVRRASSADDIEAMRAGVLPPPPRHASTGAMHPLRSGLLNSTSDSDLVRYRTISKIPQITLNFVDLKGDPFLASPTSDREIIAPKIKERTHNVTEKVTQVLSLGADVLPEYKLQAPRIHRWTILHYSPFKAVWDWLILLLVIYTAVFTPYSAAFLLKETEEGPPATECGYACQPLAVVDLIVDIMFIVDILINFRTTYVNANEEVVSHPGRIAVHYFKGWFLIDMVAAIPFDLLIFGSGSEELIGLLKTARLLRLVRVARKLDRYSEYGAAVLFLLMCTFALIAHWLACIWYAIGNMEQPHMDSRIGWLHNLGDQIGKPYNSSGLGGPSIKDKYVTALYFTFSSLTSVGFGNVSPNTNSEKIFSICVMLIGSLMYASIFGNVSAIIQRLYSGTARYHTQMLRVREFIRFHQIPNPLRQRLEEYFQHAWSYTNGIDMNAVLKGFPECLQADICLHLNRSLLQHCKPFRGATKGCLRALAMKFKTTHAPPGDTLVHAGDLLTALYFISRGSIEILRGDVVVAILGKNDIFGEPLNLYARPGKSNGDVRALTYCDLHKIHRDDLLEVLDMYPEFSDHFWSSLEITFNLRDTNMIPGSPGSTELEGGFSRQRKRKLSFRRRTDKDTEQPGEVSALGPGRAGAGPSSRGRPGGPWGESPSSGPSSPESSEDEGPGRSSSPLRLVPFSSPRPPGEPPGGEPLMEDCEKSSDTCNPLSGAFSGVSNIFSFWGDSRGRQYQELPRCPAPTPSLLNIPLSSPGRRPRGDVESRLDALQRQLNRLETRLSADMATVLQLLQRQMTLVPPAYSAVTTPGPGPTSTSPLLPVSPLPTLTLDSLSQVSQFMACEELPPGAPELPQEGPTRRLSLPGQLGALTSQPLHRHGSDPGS
- procedure_summary: primary screen, population patch clamp on CHO cells stably expressing hERG; higher = less effect of the substance
Hit rate of the full screen: of about 310,000 compounds, about 14,000 (4.5%) showed an effect of 50% or more. Effects have a minus sign here. Many of the other results were omitted from the sample, so strong results are more common in it than they were.
Please use satisfied whenever hERG current change (%, negative = inhibition) at 10uM is not below -30%, and not satisfied whenever it is.

These solved cases illustrate the format of a correct answer.
>>> classification("CCOCC(=O)N1CCN(c2ccc([N+](=O)[O-])cc2)CC1")
"not satisfied"
>>> classification("Cc1ccc2c(C(=O)CN3CCCCC3)c(C)[nH]c2c1")
"satisfied"

Qu. Quick check, hERG current change (%, negative = inhibition) at 10uM >= -30%? "C=CCn1c(O)c(C(CC)=Nc2cccc(C(=O)O)c2)c(=O)[nH]c1=O"
Ans. satisfied
